Would you kindly list phosphorylation enrichment for each of these sequences?
target: FGFR1 (UniProt P11362); assay: phosphorylation enrichment, bacterial display (enrichment ratio); higher = better substrate or ligand; peptides without Tyr show the background;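 note: 11-residue human phosphosite peptides and single-mutation variants displayed on the E. coli surface, counted by deep sequencing, each peptide's frequency after selection divided by its frequency in the unselected input library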;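 note: frequency after pTyr selection over input frequency; kinase dosed for 20-30% of maximal phosphorylation in three min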
Sequence (P11362 whole entry, looked up): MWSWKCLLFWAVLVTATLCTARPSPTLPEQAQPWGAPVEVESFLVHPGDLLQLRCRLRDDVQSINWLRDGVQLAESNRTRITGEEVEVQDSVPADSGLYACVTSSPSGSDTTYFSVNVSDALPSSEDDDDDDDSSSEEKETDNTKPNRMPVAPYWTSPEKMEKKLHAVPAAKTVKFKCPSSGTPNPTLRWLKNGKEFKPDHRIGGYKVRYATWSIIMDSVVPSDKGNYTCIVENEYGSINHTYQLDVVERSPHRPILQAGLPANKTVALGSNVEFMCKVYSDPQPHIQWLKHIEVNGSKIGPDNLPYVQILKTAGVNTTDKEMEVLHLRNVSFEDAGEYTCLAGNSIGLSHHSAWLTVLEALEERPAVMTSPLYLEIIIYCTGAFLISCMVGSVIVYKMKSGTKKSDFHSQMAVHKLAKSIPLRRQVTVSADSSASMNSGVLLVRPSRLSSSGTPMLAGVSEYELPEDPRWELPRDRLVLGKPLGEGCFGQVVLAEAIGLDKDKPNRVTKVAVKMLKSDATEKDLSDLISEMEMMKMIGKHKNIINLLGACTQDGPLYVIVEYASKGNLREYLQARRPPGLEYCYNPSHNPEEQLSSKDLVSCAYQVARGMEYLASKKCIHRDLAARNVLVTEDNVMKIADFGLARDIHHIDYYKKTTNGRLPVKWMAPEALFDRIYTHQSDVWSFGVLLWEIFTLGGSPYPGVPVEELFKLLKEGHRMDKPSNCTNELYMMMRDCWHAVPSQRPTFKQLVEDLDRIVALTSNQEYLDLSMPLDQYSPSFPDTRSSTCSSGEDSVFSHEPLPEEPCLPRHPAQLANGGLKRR
Enter a number only.

Ask: Fill in the blank: the reported phosphorylation enrichment of PQAVRYIFTID [DCX_Y103_G100A_YF] is ____.
Result: 1.01

Ask: // query: IHFAIYLLKYS [ARMC9_Y107]
Result: 0.368

Ask: Follow-up entry: KLADVYQAELR [GFAP_Y116]
Result: 0.472

Ask: Ok, now KKHIPCREHKS [CSNK1G2_Y206_Y206C]
Result: 1.13

Ask: Next sequence up: IKRIAYEFVEM [ADA_Y84]
Result: 0.564

Ask: Here is the next sequence: PQDSAYHSGIQ [FLG_Y3940_S3935P]
Result: 0.534

Ask: # iterate: ENGPFYTSFPP [GDAP2_Y488_YF]
Result: 3.86

Ask: Another sequence to look at: FDDIAYIQKTL [PIK3CA_Y1021_R1023Q]
Result: 0.503

Ask: Lookup RTTIHYNFMCN [TP53_Y234_C229R_YF]
Result: 0.648

Ask: Then WDLPEYSFKDP [ITGA3_Y237_S235P_YF] ?
Result: 0.486

Ask: How about this sequence: RIGRKYKRVRF [F8_Y442_K444R]
Result: 1.13

Ask: Do the same for ATDLAYYLVCK [ASL_Y375_R379C] please
Result: 3.43

Ask: Try this sequence next: KLSCSYSHWSA [C4BPA_Y470]
Result: 0.793

Ask: Can you handle SSQTVYQRVEG [TFR2_Y23] next?
Result: 0.526

* * *

tested on: c-Abl (mouse); assay: phosphorylation enrichment, bacterial display (enrichment ratio); higher = better substrate or ligand; peptides without Tyr show the background
Outcome measure: phosphorylation enrichment
// no unit string in output, number only

Ask: Quick one: phosphorylation enrichment of VDSNPYSRLVA [UBA5_Y53_M57V] ?
Result: 0.648

Ask: And the next one, YGSSSYRGAGG [RPA2_Y14_G15R] ?
Result: 0.623

Ask: Request: LNPVVYTLRNA [OR4C12_Y285]
Result: 1.2

Ask: Please give the result for KCCCIYEKPRS [PPP1R11_Y64_A69S] too.
Result: 3.97

Ask: Could you do the same for EGNEQYEGFCV [GRIA3_Y451_R450Q_YF] , please?
Result: 0.791

Ask: Item: RDMMDYMLQGV [CYP21A2_Y259]
Result: 0.962

Ask: Please answer likewise for IGMIIYFARKA [VCAM1_Y718]
Result: 0.734

Ask: Check SDYSSYARTSI [TERT_Y949] too.
Result: 0.639

Ask: Let us now turn to KTDKKYLMIEE [BAG3_Y451]
Result: 0.807

Ask: Also need WKGSWYSMRKM [FGB_Y475] , thanks.
Result: 0.71

Ask: For QCTSDYPEHVC [SART3_Y541] then?
Result: 1.23

Ask: Try this sequence too: DIMDLYNQPEP [IL36A_Y96]
Result: 0.852

Ask: Next entry: AFGGGYGGVLT [KRT19_Y65_YF]
Result: 0.685

Ask: Also MARDIYQASFF [LTK_Y672_R673Q_YF] ?
Result: 5.43

Ask: Do the same for NYRPGYNNFYN [USH2A_Y467] please
Result: 0.514

Ask: Please do the same for QEVLEYFMKQM [PIK3CA_Y1038_A1035V] as well.
Result: 1.31

Ask: For VRFMANTDETF [F8_Y450_Y450N] then?
Result: 0.604

Ask: Also, KRELRYMHSRV [ABCD1_Y281_G277R] please.
Result: 0.486

Ask: Now consider DHAGTYGLGDR [MAPT_Y18] and answer again.
Result: 0.442

Ask: Query TLSGIYQYSIA [FOXL2_Y81_I84S] next
Result: 1.53

Ask: Now give it for SVNIRYLLFPS [SERAC1_Y548] too.
Result: 0.817

Ask: Again, but for IDQDKYAVHFI [FLNA_Y2388_R2391H]
Result: 0.734

Ask: What do you get for ALRASYTPSPA [ESS2_Y418] ?
Result: 0.329

Ask: Entry WHHTFYNELCV [ACTC1_Y93_R97C] please
Result: 0.761

Ask: // query: DFCDLYGGEKF [PTPN11_Y66_Y63C_YF]
Result: 0.833

Ask: Could you do the same for YTHSDYQYSQR [PKP2_Y166] , please?
Result: 0.444

Ask: Can you handle SILAVYSKDIY [PANK2_Y400_N404I] next?
Result: 0.537

Ask: Query ATPKGYEPDAS [OTC_Y223] next
Result: 0.729

Ask: Same for ESLRPYDVMDV [KCNQ2_Y562]
Result: 0.595

Ask: // same read-out, input: RELGEYGLQAF [ALDH2_Y497_YF]
Result: 0.951

* * *

tested on: Fer (mouse); assay: phosphorylation enrichment, bacterial display (enrichment ratio); higher = better substrate or ligand; peptides without Tyr show the background
# phosphorylation enrichment binned as b0 (below 0.5), b1 (0.5 to below 0.6), b2 (0.6 or more)

Ask: Class? Entry: KLKPIYFHTQG [AR_Y916_V912L]
Result: b0

Ask: What do you have for RLTEGYTGPFK [ZNF862_Y181_I178T] ?
Result: b0

Ask: Next up: CDSSGYWTPEE [PAPPA2_Y908]
Result: b1

Ask: Entry to check: WFPANYVKLLS [ITSN1_Y1132]
Result: b1

Ask: Can you handle HVLEEYKPKQG [SAXO2_Y37_P34L] next?
Result: b1

Ask: Likewise for SLFNGYVYSGM [NEIL3_Y71_V76M] ?
Result: b1

Ask: Next sequence up: SVTCTYSPALD [TP53_Y126_N131D]
Result: b2

Ask: What about ATDLAYYLVCK [ASL_Y375_R379C] ?
Result: b2

Ask: Now try IITDYYVDMKF [MPP4_Y567_V562I] .
Result: b2

Ask: ALAHKYDGGGG [HBB_Y146_H147D] ?
Result: b2

Ask: Okay, and SYCYRYRCAPR [SUMF1_Y344_A348P] ?
Result: b1

Ask: Likewise for MARDIYQASFF [LTK_Y672_R673Q_YF] ?
Result: b2

Ask: Next sequence: AGNPAYRSFSN [IL4R_Y497]
Result: b0

Ask: Queued: TDDMRYPMKSE [TGDS_Y302_N298D]
Result: b1

Ask: Same lookup for IRFSDYVEVAD [PHACTR1_Y525] , please.
Result: b0

Ask: Proceed to SVTCTYTPALN [TP53_Y126_S127T]
Result: b0

Ask: Please do the same for LAETSYVTVLE [MAGEA1_Y276_K278T] as well.
Result: b2

Ask: Repeat with GLVFLYMEKNQ [PRELP_Y156]
Result: b2

Ask: Note, next up: PTTMTYFPHFD [HBA1_Y43_K41M]
Result: b1

Ask: For TCFDKYTGSTF [FN1_Y101_N104S_YF] then?
Result: b0

Ask: Next record, please: SVVVPYEPPED [TP53_Y220_V225D]
Result: b1

Ask: Would you mind doing HRNNNYEPNLF [BRCA2_Y57_K53R] as well?
Result: b1

* * *

system: AncSZ; assay: phosphorylation enrichment, bacterial display (enrichment ratio); higher = better substrate or ligand; peptides without Tyr show the background
Would you kindly list phosphorylation enrichment for each of these sequences?
Form: value (number only, do not type unit).

Ask: Quick check: phosphorylation enrichment of PGVDRYSLGTS [C5orf42_Y1451] ?
Result: 0.789

Ask: Try the sequence KRGIDYILWHM [FRMD1_Y225_R228W]
Result: 1.04

Ask: Follow-up entry: SILAVYSKDIY [PANK2_Y400_N404I]
Result: 1.07

Ask: What do you have for FETDFYRKGGK [INSR_Y1190_YF] ?
Result: 0.629

Ask: Can you check SVNIRYLLFPS [SERAC1_Y548] next?
Result: 1.08

Ask: Also ILDEAYVMASM [EGFR_Y764_V769M] , if possible.
Result: 1.22

Ask: And then LFQAKYQIRFR [CRLF1_Y272_YF] , what is it?
Result: 1.83

Ask: Queued: SAPDSYIGIGN [SLC38A4_Y27]
Result: 0.669

Ask: Also VDSAHYKLLET [DTX3L_Y385] ?
Result: 0.665

Ask: Try this sequence next: EFLKNYFTDKA [DSG2_Y775_R773K]
Result: 0.847

Ask: Please give the result for RGKEPYTKKAL [TTC21B_Y160] too.
Result: 0.815

Ask: And MSRNLYSGDFF [DDR2_Y736_YF] ?
Result: 0.825

Ask: Thanks! And DLLNSYTENEG [HSPA4L_Y600_I601T] ?
Result: 1.17

Ask: Do the same for KDGNGYISAAE [CALM1_Y100] please
Result: 0.646

Ask: Try NRVEIYDKTVE [CYFIP1_Y108_E109D] next.
Result: 0.905

Ask: Can you check SLVVPYEPPEV [TP53_Y220_V216L] next?
Result: 1.28

Ask: Repeat for the following sequence: CTTIHYNYTCN [TP53_Y234_M237T]
Result: 0.756

Ask: How about RAADFYSQQMA [GBP6_Y334_YF] ?
Result: 0.798

Ask: And what about the sequence CEETFYTMKMN [MASP2_Y401_V405M] ?
Result: 1.99

Ask: # repeat for AVEDQYFCVDC [FHL1_Y207_YF]
Result: 2.15

Ask: One more sequence: FFCRWYRNRKS [EREG_Y144_YF]
Result: 0.442

Ask: Request: RLPNGYGLAYR [DLK1_Y262_S260N]
Result: 0.706

Ask: Now consider SEDSEYYRAFE [CASQ2_Y178_K180R] and answer again.
Result: 2.7

Ask: And for VKANTYENYWP [GATM_Y100_K102N] ?
Result: 0.893

Ask: Queued: VEDHFYEGGIG [TKT_Y564_YF]
Result: 1.24

Ask: Also, LFSDHYSPSGR [TMPRSS12_Y23_YF] please.
Result: 0.654

Ask: Record: HGVSSYDTVIS [LDLR_Y465]
Result: 1.19

Ask: Next sequence: GEAEQYVGGGG [FAT4_Y4980]
Result: 0.842

Ask: Now give it for EREYKYGAHNY [OAT_Y50] too.
Result: 0.516
